B1: MMP1 (parent)
chain: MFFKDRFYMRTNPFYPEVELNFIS

Variants of: B1
Experiment: protein stability index of a GFP-peptide fusion (GPS, HEK-293T) (PSI 1-6); higher = more stable;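 further: lentivirally expressed fusions sorted by FACS into six bins by GFP to DsRed ratio, PSI derived from sequencing read proportions per bin multiplied by bin number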
Settings: c terminus: a fixed tail appended
metric: protein stability index
Format: numeric value only, no unit, no commentary.

Please review the entries below; each comes with its answer.
P16Y | 2.82
K4G | 1.72
K4N | 2.26

[ask] Which protein stability index value belongs to `D5A` ?
[reply] 2.8

[ask] Proceed to `N12S`
[reply] 2.74

[ask] Follow-up entry: `F22L`
[reply] 3.27

[ask] What about `D5V` ?
[reply] 2.6

[ask] Also `V18G` ?
[reply] 2.08

[ask] What would you report for `P16V` ?
[reply] 3.21

[ask] Same lookup for `T11V` , please.
[reply] 4.1

[ask] `N12G` , same question.
[reply] 2.91

[ask] Same read-out for `P13A` ?
[reply] 2.38

[ask] Request: `N21K`
[reply] 1.96
